Run description: Stability in buffer at various pH values
Format: physicochemical
Conditions used: pH 7.4, 37° C., 4 h
Procedure: 0.3 mg of the test substance is weighed into a 2 ml HPLC vial and 0.5 ml of acetonitrile or acetonitrile/DMSO (9:1) is added. The substance is dissolved by putting the sample vessel in an ultrasonic bath for about 10 seconds. […] 5 μl portions of the test solution are analyzed by HPLC for their content of unchanged test substance, and of active substance (A) formed, every hour over a period of 24 hours at 37° C. The percentage areas of the appropriate peaks are used for quantification. […]
Structures can show the parent of a compound that is named as a salt.
Property: % test substance after 4 h [F(t = 4 h) × 100/F(t = 0 h)] (%)

Solved cases (6 shown):
Compound	Observed
CC[C@H](C)[C@H](N)C(=O)N[C@@H](C)C(=O)OC[C@H](COc1ccc(-c2c(C#N)c(N)nc(SCc3coc(-c4ccc(Cl)cc4)n3)c2C#N)cc1)OC(=O)[C@H](C)NC(=O)[C@@H](N)[C@@H](C)CC	100
C[C@H](NC(=O)[C@@H]1CCCN1)C(=O)OC[C@H](COc1ccc(-c2c(C#N)c(N)nc(SCc3coc(-c4ccc(Cl)cc4)n3)c2C#N)cc1)OC(=O)[C@H](C)NC(=O)[C@@H]1CCCN1 [Example 8, (trifluoroacetic acid) salt]	82
C[C@H](NC(=O)CN)C(=O)OC[C@H](COc1ccc(-c2c(C#N)c(N)nc(SCc3coc(-c4ccc(Cl)cc4)n3)c2C#N)cc1)OC(=O)[C@H](C)NC(=O)CN	0
CC(C)[C@H](N)C(=O)N[C@@H](C)C(=O)OC[C@H](COc1ccc(-c2c(C#N)c(N)nc(SCc3coc(-c4ccc(Cl)cc4)n3)c2C#N)cc1)OC(=O)[C@H](C)NC(=O)[C@@H](N)C(C)C	84
C[C@H](NC(=O)[C@@H](N)CCCCN)C(=O)OC[C@H](COc1ccc(-c2c(C#N)c(N)nc(SCc3coc(-c4ccc(Cl)cc4)n3)c2C#N)cc1)OC(=O)[C@H](C)NC(=O)[C@@H](N)CCCCN	2
C[C@H](NC(=O)C[C@H](N)C(=O)O)C(=O)OC[C@H](COc1ccc(-c2c(C#N)c(N)nc(SCc3coc(-c4ccc(Cl)cc4)n3)c2C#N)cc1)OC(=O)[C@H](C)NC(=O)C[C@H](N)C(=O)O [Example 14, bis(trifluoroacetic acid) salt]	100

a. C[C@H](NC(=O)[C@@H](N)CCCCN)C(=O)OC[C@@H](COc1ccc(-c2c(C#N)c(N)nc(SCc3coc(-c4ccc(Cl)cc4)n3)c2C#N)cc1)OC(=O)[C@H](C)NC(=O)[C@@H](N)CCCCN
b. C[C@H](NC(=O)CCN)C(=O)OC[C@H](COc1ccc(-c2c(C#N)c(N)nc(SCc3coc(-c4ccc(Cl)cc4)n3)c2C#N)cc1)OC(=O)[C@H](C)NC(=O)CCN
Return label of the item with the larger % test substance after 4 h [F(t = 4 h) × 100/F(t = 0 h)]. Candidates: a , b . Write down the label of the entry you select.
b

P. C[C@H](N)C(=O)N[C@@H](C)C(=O)OC[C@H](COc1ccc(-c2c(C#N)c(N)nc(SCc3coc(-c4ccc(Cl)cc4)n3)c2C#N)cc1)OC(=O)[C@H](C)NC(=O)[C@H](C)N
Q. CC(C)[C@H](NC(=O)[C@H](C)N)C(=O)OC[C@H](COc1ccc(-c2c(C#N)c(N)nc(SCc3coc(-c4ccc(Cl)cc4)n3)c2C#N)cc1)OC(=O)[C@@H](NC(=O)[C@H](C)N)C(C)C
Hey, which is lower on measured % test substance after 4 h [F(t = 4 h) × 100/F(t = 0 h)], P or Q ? Pick one and reply with its label.
P

----------
Run description: Stability in buffer at various pH values
Format: physicochemical
Conditions used: pH 4, 37° C., 24 h
Structures can show the parent of a compound that is named as a salt.
Property: % test substance after 24 h [F(t = 24 h) × 100/F(t = 0 h)] (%)

Compound	Result unit	Observed
C[C@H](NC(=O)[C@@H]1CCCN1)C(=O)OC[C@H](COc1ccc(-c2c(C#N)c(N)nc(SCc3coc(-c4ccc(Cl)cc4)n3)c2C#N)cc1)OC(=O)[C@H](C)NC(=O)[C@@H]1CCCN1 [Example 8, (trifluoroacetic acid) salt]	%	100
C[C@H](NC(=O)[C@@H](N)CCCCN)C(=O)OC[C@H](COc1ccc(-c2c(C#N)c(N)nc(SCc3coc(-c4ccc(Cl)cc4)n3)c2C#N)cc1)OC(=O)[C@H](C)NC(=O)[C@@H](N)CCCCN	%	94
C[C@H](N)C(=O)N[C@@H](C)C(=O)OC[C@H](COc1ccc(-c2c(C#N)c(N)nc(SCc3coc(-c4ccc(Cl)cc4)n3)c2C#N)cc1)OC(=O)[C@H](C)NC(=O)[C@H](C)N	%	100
C[C@H](NC(=O)CN)C(=O)OC[C@H](COc1ccc(-c2c(C#N)c(N)nc(SCc3coc(-c4ccc(Cl)cc4)n3)c2C#N)cc1)OC(=O)[C@H](C)NC(=O)CN	%	100
CC[C@H](C)[C@H](N)C(=O)N[C@@H](C)C(=O)OC[C@H](COc1ccc(-c2c(C#N)c(N)nc(SCc3coc(-c4ccc(Cl)cc4)n3)c2C#N)cc1)OC(=O)[C@H](C)NC(=O)[C@@H](N)[C@@H](C)CC	%	100

----------
Run description: Stability in buffer at various pH values
Assay type: physicochemical
Conditions used: pH 4, 37° C., 24 h
Where a name gives a salt, the structure may show the parent alone.
Property: % test substance after 24 h [F(t = 24 h) × 100/F(t = 0 h)] (%)

Compound	Result unit	Observed
C[C@H](NC(=O)C[C@H](N)C(=O)O)C(=O)OC[C@H](COc1ccc(-c2c(C#N)c(N)nc(SCc3coc(-c4ccc(Cl)cc4)n3)c2C#N)cc1)OC(=O)[C@H](C)NC(=O)C[C@H](N)C(=O)O [Example 14, bis(trifluoroacetic acid) salt]	%	95
C[C@H](NC(=O)[C@@H](N)CCCCN)C(=O)OC[C@@H](COc1ccc(-c2c(C#N)c(N)nc(SCc3coc(-c4ccc(Cl)cc4)n3)c2C#N)cc1)OC(=O)[C@H](C)NC(=O)[C@@H](N)CCCCN	%	99
CC(C)[C@H](NC(=O)[C@H](C)N)C(=O)OC[C@H](COc1ccc(-c2c(C#N)c(N)nc(SCc3coc(-c4ccc(Cl)cc4)n3)c2C#N)cc1)OC(=O)[C@@H](NC(=O)[C@H](C)N)C(C)C	%	99
C[C@H](NC(=O)CCN)C(=O)OC[C@H](COc1ccc(-c2c(C#N)c(N)nc(SCc3coc(-c4ccc(Cl)cc4)n3)c2C#N)cc1)OC(=O)[C@H](C)NC(=O)CCN	%	100
CC(C)[C@H](N)C(=O)N[C@@H](C)C(=O)OC[C@H](COc1ccc(-c2c(C#N)c(N)nc(SCc3coc(-c4ccc(Cl)cc4)n3)c2C#N)cc1)OC(=O)[C@H](C)NC(=O)[C@@H](N)C(C)C	%	99

----------
Run description: Stability in buffer at various pH values
Format: physicochemical
Conditions used: pH 5, 37° C., 24 h
Property: % test substance after 24 h [F(t = 24 h) × 100/F(t = 0 h)] (%)

Test smiles	Result unit	Observed
C[C@H](NC(=O)CCN)C(=O)OC[C@H](COc1ccc(-c2c(C#N)c(N)nc(SCc3coc(-c4ccc(Cl)cc4)n3)c2C#N)cc1)OC(=O)[C@H](C)NC(=O)CCN	%	100
C[C@H](N)C(=O)N[C@@H](C)C(=O)OC[C@H](COc1ccc(-c2c(C#N)c(N)nc(SCc3coc(-c4ccc(Cl)cc4)n3)c2C#N)cc1)OC(=O)[C@H](C)NC(=O)[C@H](C)N	%	97
C[C@H](NC(=O)CN)C(=O)OC[C@H](COc1ccc(-c2c(C#N)c(N)nc(SCc3coc(-c4ccc(Cl)cc4)n3)c2C#N)cc1)OC(=O)[C@H](C)NC(=O)CN	%	83
CC(C)[C@H](N)C(=O)N[C@@H](C)C(=O)OC[C@H](COc1ccc(-c2c(C#N)c(N)nc(SCc3coc(-c4ccc(Cl)cc4)n3)c2C#N)cc1)OC(=O)[C@H](C)NC(=O)[C@@H](N)C(C)C	%	92

----------
Run description: Determination of the solubility in 5% strength aqueous dextrose solution
Format: physicochemical
Conditions used: saline or isotonic, thermodynamic from solid, room temperature
Property: solubility thermodynamic at 24 h (µg/mL)

Molecule	solubility thermodynamic at 24 h (µg/mL)
C[C@H](NC(=O)[C@@H](N)CCN)C(=O)OC[C@H](COc1ccc(-c2c(C#N)c(N)nc(SCc3coc(-c4ccc(Cl)cc4)n3)c2C#N)cc1)OC(=O)[C@H](C)NC(=O)[C@@H](N)CCN [Example 3]	590

I. CC[C@H](C)[C@H](N)C(=O)N[C@@H](C)C(=O)OC[C@H](COc1ccc(-c2c(C#N)c(N)nc(SCc3coc(-c4ccc(Cl)cc4)n3)c2C#N)cc1)OC(=O)[C@H](C)NC(=O)[C@@H](N)[C@@H](C)CC [Example 2]
II. C[C@H](N)C(=O)NCCC(=O)OC[C@H](COc1ccc(-c2c(C#N)c(N)nc(SCc3coc(-c4ccc(Cl)cc4)n3)c2C#N)cc1)OC(=O)CCNC(=O)[C@H](C)N [Example 31]
Short answer wanted: higher solubility thermodynamic at 24 h, I or II ? Indicate your choice by writing its label.
I
(I: 670 µg/mL, II: 220 µg/mL)

Where these numbers come from: patent US8741834B2
